Measured EC50, listed per entry for reference.
- measured.on: SARS-CoV-2 spike receptor binding domain (RBD), S protein residues 319-539 (SARS-CoV-2, UniProt P0DTC2 319-539)
- test.details: ELISA on coated RBD
Form entry: value (ng/mL) — number only.

binder	EC50, ng/mL
C073 (antibody, V domains shown) VH: QLQLQESGPGLVKPSETLSLTCTVSGASIPSSTSYWGWIRQPPGKGLEWIGSIYYTGSTYYNPSLKSRVTISVDTSKNHFSLILSSVTAADTAVYYCARRSITLAGRDCLDFWGQGTLVTVSS VL: DIQLTQSPSSLSASVGDRLTITCRASQSITTSLNWYQQKPGKAPKLLIYAASSLQSGVPSRFSGSGSGTDFTLAISSLQPEDFATYYCQQSYIPLLTFGGGTKVDIK	20.6
C517 (antibody, V domains shown) VH: EVQLVESGGGLVQPGGSLRLSCAASEFIVSRNYMSWVRQAPGKGLEWVSLIYSGGSTYYADSVKGRFTISRDNSKNTLYLQMNSLRAEDTAMYYCARDIAGRLDYWGQGTLVTVSS VL: DIQMTQSPSSLSASVGDRVTITCQASQDISKYLNWYQQKPGKAPKLLIYDASNLETGVPSRFSGSGSGTDFTFTISSLQPEDFATYYCQHYDSLSRLTFGGGTKVEIK	0.87

Prompt: Which EC50 reading was recorded for the binder C504 (antibody, V domains shown) VH: QVQLQESGPGLVKPSETLSLTCTVSGGSISSSYWNWIRQSPGKGLEWIGYIYYDGYTTFNPSLKSRVTISVDTSKNQFSLKLSSVTAADTAFYYCAAGLKGRSSSWYEYWGQGTLVTVSS VL: DIQMTQSPSSLSASVGDRVTITCRASQSISSYLNWYQQKPGKAPKLLIYATSSLQSGVPSRFSGSGSGTDFTLTITSLQPEDFATYYCQQTYSSPHTFGQGTKLEIK ?
Response: 6.55
